test_name: In vivo topical administration pharmacokinetics of K173, rabbit (aqueous humor, cornea)
experimental_parameters: aqueous humor, topical or ocular, 5 mg/ml, Group 2 (4 doses), topical 5 mg/ml, 24 hr post-last dose, OD, Mean, read-out: K173 Concentrations (ng/mL) in Rabbit Aqueous Humor OD Sample, Mean
Positions of bridges follow the written chain, without caps; N, C: chain ends. Non-standard residues stand in square brackets, D forms with d. Residues, ends and D or L forms follow the SMILES beside them. Triazole bridges read from a SMILES are 1,4-linked. *: point of attachment. Benzoyl(3,5-(OH)2) = O=C(c1cc(O)cc(O)c1)*; Lys(N3) = [N-]=[N+]=NCCCC[C@H](N)C(=O)O; dPhe(4-F) = N[C@H](Cc1ccc(F)cc1)C(=O)O; Nle = CCCC[C@H](N)C(=O)O; Pra = C#CC[C@H](N)C(=O)O
measured_quantity: level at 24 h (ng/mL)
// note: answer is a bare numeric in ng/mL

level at 24 h lookup needed for CCCC[C@H](NC(=O)c1cc(O)cc(O)c1)C(=O)N[C@H]1CCCCn2cc(nn2)C[C@@H](C(N)=O)NC(=O)[C@H](Cc2c[nH]c3ccccc23)NC(=O)[C@H](CCCNC(=N)N)NC(=O)[C@@H](Cc2ccc(F)cc2)NC(=O)[C@H](Cc2c[nH]cn2)NC1=O [KR-072] ({Benzoyl(3,5-(OH)2)}-[Nle][Lys(N3)]H[dPhe(4-F)]RW[Pra]-NH2; triazole 2-7) , thanks. 1.98

====

test_name: In vivo topical administration pharmacokinetics of K173, rabbit (aqueous humor, cornea)
experimental_parameters: aqueous humor, topical or ocular, 5 mg/ml solution, 35 L per eye, Group 1 (single dose), topical 5 mg/ml, 30 Min post-last dose, OS, Mean, read-out: K173 Concentrations (ng/mL) in Rabbit Aqueous Humor OS Sample, Mean
Positions of bridges follow the written chain, without caps; N, C: chain ends. Non-standard residues stand in square brackets, D forms with d. Residues, ends and D or L forms follow the SMILES beside them. Triazole bridges read from a SMILES are 1,4-linked. *: point of attachment. Benzoyl(3,5-(OH)2) = O=C(c1cc(O)cc(O)c1)*; Lys(N3) = [N-]=[N+]=NCCCC[C@H](N)C(=O)O; dPhe(4-F) = N[C@H](Cc1ccc(F)cc1)C(=O)O; Nle = CCCC[C@H](N)C(=O)O; Pra = C#CC[C@H](N)C(=O)O
measured_quantity: level at 0.5 h

level at 0.5 h lookup needed for CCCC[C@H](NC(=O)c1cc(O)cc(O)c1)C(=O)N[C@H]1CCCCn2cc(nn2)C[C@@H](C(N)=O)NC(=O)[C@H](Cc2c[nH]c3ccccc23)NC(=O)[C@H](CCCNC(=N)N)NC(=O)[C@@H](Cc2ccc(F)cc2)NC(=O)[C@H](Cc2c[nH]cn2)NC1=O [KR-072] ({Benzoyl(3,5-(OH)2)}-[Nle][Lys(N3)]H[dPhe(4-F)]RW[Pra]-NH2; triazole 2-7) , thanks. 1.36 ng/mL

====

measured_on: human recombinant MC4R (Homo sapiens)
Construct: host or cells: CHO-K1/Gα15
Sequence (P32245 whole entry): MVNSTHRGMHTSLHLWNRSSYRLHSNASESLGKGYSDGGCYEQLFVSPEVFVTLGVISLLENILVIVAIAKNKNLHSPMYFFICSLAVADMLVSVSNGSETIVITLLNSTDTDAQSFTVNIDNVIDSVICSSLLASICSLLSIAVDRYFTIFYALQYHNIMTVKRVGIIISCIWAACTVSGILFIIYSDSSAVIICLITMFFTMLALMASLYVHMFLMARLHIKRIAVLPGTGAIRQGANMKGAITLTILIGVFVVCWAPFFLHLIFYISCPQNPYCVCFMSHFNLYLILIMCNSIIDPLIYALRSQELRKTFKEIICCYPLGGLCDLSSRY
test_name: Ca2+ signalling functional assay, MC4R stable cell line (CHO-K1/Gα15)
Type: cell-based
Positions of bridges follow the written chain, without caps; N, C: chain ends. Non-standard residues stand in square brackets, D forms with d. Residues, ends and D or L forms follow the SMILES beside them. Triazole bridges read from a SMILES are 1,4-linked. *: point of attachment. Benzoyl(3,5-(OH)2) = O=C(c1cc(O)cc(O)c1)*; Lys(N3) = [N-]=[N+]=NCCCC[C@H](N)C(=O)O; dPhe(4-F) = N[C@H](Cc1ccc(F)cc1)C(=O)O; Nle = CCCC[C@H](N)C(=O)O; Pra = C#CC[C@H](N)C(=O)O
measured_quantity: EC50 (nM)
// note: answer is a bare numeric in nM

EC50 lookup needed for CCCC[C@H](NC(=O)c1cc(O)cc(O)c1)C(=O)N[C@H]1CCCCn2cc(nn2)C[C@@H](C(N)=O)NC(=O)[C@H](Cc2c[nH]c3ccccc23)NC(=O)[C@H](CCCNC(=N)N)NC(=O)[C@@H](Cc2ccc(F)cc2)NC(=O)[C@H](Cc2c[nH]cn2)NC1=O [KR-072] ({Benzoyl(3,5-(OH)2)}-[Nle][Lys(N3)]H[dPhe(4-F)]RW[Pra]-NH2; triazole 2-7) , thanks. 98.6

====

test_name: In vivo topical administration pharmacokinetics of K173, rabbit (aqueous humor, cornea)
experimental_parameters: aqueous humor, topical or ocular, 5 mg/ml, Group 2 (4 doses), topical 5 mg/ml, 4 hr post-last dose, OD, Mean, read-out: K173 Concentrations (ng/mL) in Rabbit Aqueous Humor OD Sample, Mean
Positions of bridges follow the written chain, without caps; N, C: chain ends. Non-standard residues stand in square brackets, D forms with d. Residues, ends and D or L forms follow the SMILES beside them. Triazole bridges read from a SMILES are 1,4-linked. *: point of attachment. Benzoyl(3,5-(OH)2) = O=C(c1cc(O)cc(O)c1)*; Lys(N3) = [N-]=[N+]=NCCCC[C@H](N)C(=O)O; dPhe(4-F) = N[C@H](Cc1ccc(F)cc1)C(=O)O; Nle = CCCC[C@H](N)C(=O)O; Pra = C#CC[C@H](N)C(=O)O
measured_quantity: level at 4 h (ng/mL)
// note: answer is a bare numeric in ng/mL

level at 4 h lookup needed for CCCC[C@H](NC(=O)c1cc(O)cc(O)c1)C(=O)N[C@H]1CCCCn2cc(nn2)C[C@@H](C(N)=O)NC(=O)[C@H](Cc2c[nH]c3ccccc23)NC(=O)[C@H](CCCNC(=N)N)NC(=O)[C@@H](Cc2ccc(F)cc2)NC(=O)[C@H](Cc2c[nH]cn2)NC1=O [KR-072] ({Benzoyl(3,5-(OH)2)}-[Nle][Lys(N3)]H[dPhe(4-F)]RW[Pra]-NH2; triazole 2-7) , thanks. 4.61

====

test_name: In vivo topical administration pharmacokinetics of K173, rabbit (aqueous humor, cornea)
experimental_parameters: aqueous humor, topical or ocular, 5 mg/ml solution, 35 L per eye, Group 1 (single dose), topical 5 mg/ml, 30 Min post-last dose, OD, Mean, read-out: K173 Concentrations (ng/mL) in Rabbit Aqueous Humor OD Sample, Mean
Positions of bridges follow the written chain, without caps; N, C: chain ends. Non-standard residues stand in square brackets, D forms with d. Residues, ends and D or L forms follow the SMILES beside them. Triazole bridges read from a SMILES are 1,4-linked. *: point of attachment. Benzoyl(3,5-(OH)2) = O=C(c1cc(O)cc(O)c1)*; Lys(N3) = [N-]=[N+]=NCCCC[C@H](N)C(=O)O; dPhe(4-F) = N[C@H](Cc1ccc(F)cc1)C(=O)O; Nle = CCCC[C@H](N)C(=O)O; Pra = C#CC[C@H](N)C(=O)O
measured_quantity: level at 0.5 h (ng/mL)
// note: answer is a bare numeric in ng/mL

level at 0.5 h lookup needed for CCCC[C@H](NC(=O)c1cc(O)cc(O)c1)C(=O)N[C@H]1CCCCn2cc(nn2)C[C@@H](C(N)=O)NC(=O)[C@H](Cc2c[nH]c3ccccc23)NC(=O)[C@H](CCCNC(=N)N)NC(=O)[C@@H](Cc2ccc(F)cc2)NC(=O)[C@H](Cc2c[nH]cn2)NC1=O [KR-072] ({Benzoyl(3,5-(OH)2)}-[Nle][Lys(N3)]H[dPhe(4-F)]RW[Pra]-NH2; triazole 2-7) , thanks. 8.44

====

test_name: In vivo topical administration pharmacokinetics of K173, rabbit (aqueous humor, cornea)
experimental_parameters: aqueous humor, topical or ocular, 5 mg/ml, Group 2 (4 doses), topical 5 mg/ml, 8 hr post-last dose, OD, Mean, read-out: K173 Concentrations (ng/mL) in Rabbit Aqueous Humor OD Sample, Mean
Positions of bridges follow the written chain, without caps; N, C: chain ends. Non-standard residues stand in square brackets, D forms with d. Residues, ends and D or L forms follow the SMILES beside them. Triazole bridges read from a SMILES are 1,4-linked. *: point of attachment. Benzoyl(3,5-(OH)2) = O=C(c1cc(O)cc(O)c1)*; Lys(N3) = [N-]=[N+]=NCCCC[C@H](N)C(=O)O; dPhe(4-F) = N[C@H](Cc1ccc(F)cc1)C(=O)O; Nle = CCCC[C@H](N)C(=O)O; Pra = C#CC[C@H](N)C(=O)O
measured_quantity: level at 8 h (ng/mL)
// note: answer is a bare numeric in ng/mL

level at 8 h lookup needed for CCCC[C@H](NC(=O)c1cc(O)cc(O)c1)C(=O)N[C@H]1CCCCn2cc(nn2)C[C@@H](C(N)=O)NC(=O)[C@H](Cc2c[nH]c3ccccc23)NC(=O)[C@H](CCCNC(=N)N)NC(=O)[C@@H](Cc2ccc(F)cc2)NC(=O)[C@H](Cc2c[nH]cn2)NC1=O [KR-072] ({Benzoyl(3,5-(OH)2)}-[Nle][Lys(N3)]H[dPhe(4-F)]RW[Pra]-NH2; triazole 2-7) , thanks. 10.9
